Where do the numbers come from? From ChEMBL document CHEMBL1201862.

MEASURED_ON: Ubiquitin-conjugating enzyme E2 N (Homo sapiens)
Sequence (P61088 whole entry): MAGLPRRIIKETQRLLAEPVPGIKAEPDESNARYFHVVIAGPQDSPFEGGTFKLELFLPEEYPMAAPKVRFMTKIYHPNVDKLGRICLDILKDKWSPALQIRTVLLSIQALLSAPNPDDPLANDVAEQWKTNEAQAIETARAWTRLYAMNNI
Format: functional
Active and inactive are the calls of the source.
Lab note: assign the record to one of yes (1) for active, no (0) for inactive

>  <MOLECULE>
COC(=O)c1ccc(Cn2c(O)c(/N=N/C(=N)S)c3ccccc32)o1

>  <CLASSIFICATION>
no (0)

$$$$
>  <MOLECULE>
CCOc1ccccc1NC(=O)C(OC(=O)c1ccc(O)cc1)c1ccccc1 (centres undefined)

>  <CLASSIFICATION>
no (0)

$$$$
>  <MOLECULE>
c1coc(-c2nc(-c3ccco3)c(-c3ccco3)nc2-c2ccco2)c1

>  <CLASSIFICATION>
yes (1)

$$$$

Please look at the following molecule next.
**Q:** Per the records of this test, what outcome belongs to O=C(NNC(=O)c1nn(-c2ccc(F)cc2)ccc1=O)c1ccccc1Cl ?
**A:** yes (1)

====

MEASURED_ON: Peroxisome proliferator-activated receptor gamma/Nuclear receptor coactivator 3 (Homo sapiens, UniProt P37231)
Sequence (P37231 whole entry): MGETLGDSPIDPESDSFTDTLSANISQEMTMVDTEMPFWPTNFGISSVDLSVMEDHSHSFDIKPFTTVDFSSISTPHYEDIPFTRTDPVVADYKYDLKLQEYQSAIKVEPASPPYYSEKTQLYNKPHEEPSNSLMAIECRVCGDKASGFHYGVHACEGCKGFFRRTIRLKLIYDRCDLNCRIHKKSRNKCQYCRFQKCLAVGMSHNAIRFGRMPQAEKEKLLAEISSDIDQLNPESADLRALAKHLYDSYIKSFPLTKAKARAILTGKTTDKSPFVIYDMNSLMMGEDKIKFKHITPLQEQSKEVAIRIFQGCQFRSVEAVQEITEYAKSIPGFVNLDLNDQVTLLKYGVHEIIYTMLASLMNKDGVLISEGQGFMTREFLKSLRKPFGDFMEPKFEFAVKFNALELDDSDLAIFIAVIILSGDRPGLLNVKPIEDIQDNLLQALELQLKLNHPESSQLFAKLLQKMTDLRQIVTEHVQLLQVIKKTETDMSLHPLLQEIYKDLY
Sequence (Q9Y6Q9 whole entry, further chain): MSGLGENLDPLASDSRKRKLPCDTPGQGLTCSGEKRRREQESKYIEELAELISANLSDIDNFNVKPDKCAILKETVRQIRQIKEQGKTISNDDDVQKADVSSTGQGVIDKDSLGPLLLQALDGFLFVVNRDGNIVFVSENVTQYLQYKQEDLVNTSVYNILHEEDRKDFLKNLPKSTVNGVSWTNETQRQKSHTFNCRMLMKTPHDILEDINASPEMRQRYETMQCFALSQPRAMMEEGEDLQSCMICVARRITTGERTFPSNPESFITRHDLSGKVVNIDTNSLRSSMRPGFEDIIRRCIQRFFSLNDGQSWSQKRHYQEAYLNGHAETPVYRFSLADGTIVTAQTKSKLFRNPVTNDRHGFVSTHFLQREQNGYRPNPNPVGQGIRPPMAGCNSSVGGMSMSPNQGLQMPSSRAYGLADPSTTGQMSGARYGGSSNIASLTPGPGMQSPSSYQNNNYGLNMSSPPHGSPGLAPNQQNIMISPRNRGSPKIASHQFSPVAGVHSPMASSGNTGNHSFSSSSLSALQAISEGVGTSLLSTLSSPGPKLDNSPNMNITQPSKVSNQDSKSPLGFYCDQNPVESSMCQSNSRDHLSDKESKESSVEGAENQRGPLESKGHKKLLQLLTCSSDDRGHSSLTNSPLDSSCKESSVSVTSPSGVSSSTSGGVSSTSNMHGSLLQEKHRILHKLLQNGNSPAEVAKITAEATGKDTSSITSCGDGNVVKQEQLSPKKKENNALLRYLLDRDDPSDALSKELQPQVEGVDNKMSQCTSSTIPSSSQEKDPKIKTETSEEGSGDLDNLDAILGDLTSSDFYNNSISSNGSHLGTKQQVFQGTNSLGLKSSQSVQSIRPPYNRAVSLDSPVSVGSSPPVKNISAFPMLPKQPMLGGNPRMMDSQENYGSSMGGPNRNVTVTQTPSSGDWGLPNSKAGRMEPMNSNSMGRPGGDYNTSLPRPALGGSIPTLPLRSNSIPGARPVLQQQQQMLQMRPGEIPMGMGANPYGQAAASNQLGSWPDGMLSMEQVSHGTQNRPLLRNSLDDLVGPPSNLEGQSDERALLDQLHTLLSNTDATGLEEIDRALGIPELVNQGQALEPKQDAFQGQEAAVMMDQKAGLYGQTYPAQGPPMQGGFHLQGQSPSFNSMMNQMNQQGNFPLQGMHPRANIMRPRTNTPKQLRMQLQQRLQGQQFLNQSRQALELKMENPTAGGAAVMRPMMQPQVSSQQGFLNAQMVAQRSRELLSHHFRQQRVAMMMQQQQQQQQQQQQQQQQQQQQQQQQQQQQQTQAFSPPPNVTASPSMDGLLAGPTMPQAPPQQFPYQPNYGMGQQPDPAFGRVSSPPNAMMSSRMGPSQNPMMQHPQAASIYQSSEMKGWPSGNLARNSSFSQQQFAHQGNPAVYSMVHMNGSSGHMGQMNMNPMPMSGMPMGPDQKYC
Assay type: functional
Reported EC50 values for a set of molecules

Consider the reported EC50 for these molecules:
>  <MOLECULE>
Oc1ccc(NCc2cccc(OCc3ccc(F)cc3)c2)cc1

>  <VALUE>
> 79.4 µM (not active)

$$$$
>  <MOLECULE>
CCOc1ccc(NC2=NN=C(c3cc(C)n(CC4CCCO4)c3C)CS2)cc1 (centres undefined)

>  <VALUE>
> 79.4 µM (not active)

$$$$
>  <MOLECULE>
COc1ccc(Cn2c(-c3ccc(C)cc3)nc3c(c(=O)c4ccccc4n3C)c2=O)cc1

>  <VALUE>
> 79.4 µM (not active)

$$$$

Let us move to another entry and its EC50.
Notebook: Cc1ccc(OCC(=O)NNC(=O)C(=O)NC(C)(C)C)cc1 , EC50 read as > 79.4 µM (not active)

====

MEASURED_ON: Protein skinhead-1 (Caenorhabditis elegans, UniProt P34707)
Sequence (P34707 whole entry): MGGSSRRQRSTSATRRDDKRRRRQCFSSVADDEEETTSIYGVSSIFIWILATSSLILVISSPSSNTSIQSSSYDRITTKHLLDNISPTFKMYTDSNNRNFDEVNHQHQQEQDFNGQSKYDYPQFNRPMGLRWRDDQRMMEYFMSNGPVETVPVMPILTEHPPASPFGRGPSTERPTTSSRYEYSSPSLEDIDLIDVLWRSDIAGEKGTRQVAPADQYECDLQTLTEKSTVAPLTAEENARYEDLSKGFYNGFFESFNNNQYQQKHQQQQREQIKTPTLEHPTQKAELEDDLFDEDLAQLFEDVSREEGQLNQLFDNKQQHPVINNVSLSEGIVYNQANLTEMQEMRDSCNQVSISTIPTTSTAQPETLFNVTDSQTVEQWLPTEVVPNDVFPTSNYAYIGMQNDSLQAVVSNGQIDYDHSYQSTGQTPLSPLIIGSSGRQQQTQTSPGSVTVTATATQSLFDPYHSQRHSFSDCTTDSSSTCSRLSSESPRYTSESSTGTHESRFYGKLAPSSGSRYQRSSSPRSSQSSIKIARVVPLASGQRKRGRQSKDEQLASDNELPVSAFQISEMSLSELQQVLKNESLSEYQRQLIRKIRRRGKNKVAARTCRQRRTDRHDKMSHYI
Format: functional
The source made the active and inactive calls.
Use one of these outcomes when replying: active, inactive

// below: answered compounds
>  <COMPOUND>
Oc1cc2c(cc1O)[C@H]1c3ccc(O)c(O)c3OC[C@@]1(O)C2

>  <CLASSIFICATION>
inactive

$$$$
>  <COMPOUND>
O=[N+]([O-])c1ccc(Nc2nccc(Cl)n2)cc1

>  <CLASSIFICATION>
inactive

$$$$
>  <COMPOUND>
CCn1c(C)c(C)c2cc(C(=O)N3CCN(c4ccccc4)CC3)ccc21

>  <CLASSIFICATION>
inactive

$$$$

**Q:** So what was the verdict on O=C(Oc1cncc(Cl)c1)c1ccco1 in this test?
**A:** inactive

====

MEASURED_ON: High affinity choline transporter 1 (Homo sapiens)
Sequence (Q9GZV3 whole entry): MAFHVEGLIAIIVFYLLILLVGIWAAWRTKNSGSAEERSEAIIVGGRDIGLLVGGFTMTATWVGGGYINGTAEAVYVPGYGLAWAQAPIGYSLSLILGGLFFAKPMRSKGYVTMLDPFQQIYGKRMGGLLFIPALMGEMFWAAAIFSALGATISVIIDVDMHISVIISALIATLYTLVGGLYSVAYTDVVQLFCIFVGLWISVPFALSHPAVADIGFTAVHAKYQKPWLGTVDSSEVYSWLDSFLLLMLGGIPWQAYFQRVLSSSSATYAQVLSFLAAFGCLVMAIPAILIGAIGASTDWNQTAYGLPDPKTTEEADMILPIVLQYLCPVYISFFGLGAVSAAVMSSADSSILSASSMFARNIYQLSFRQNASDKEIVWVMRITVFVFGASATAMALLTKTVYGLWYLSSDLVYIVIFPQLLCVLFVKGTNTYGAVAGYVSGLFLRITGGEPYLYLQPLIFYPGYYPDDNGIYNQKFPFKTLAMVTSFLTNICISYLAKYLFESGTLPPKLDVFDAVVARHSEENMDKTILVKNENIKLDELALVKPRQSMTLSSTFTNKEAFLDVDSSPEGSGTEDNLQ
ASSAY_REMARKS: CHT inhibitors, dose response, cell-based, 5-point CRC, membrane potential dye (AID 504840)
Type: functional
The source made the active and inactive calls.
REPORTED_ENDPOINT: IC50

Notebook: NC(=O)CC(NC(=O)c1ccccc1)c1ccc(N2CCCCCCC2)c([N+](=O)[O-])c1 (stereo not drawn) , IC50 read as 6.41 µM (active)

The recorded IC50 for CC(=O)NN1C(=O)c2ccc(Oc3cccc([N+](=O)[O-])c3)cc2C1=O is 9.92 µM (active)

The compound listed as N=c1n(Cc2ccc(Cl)cc2)c2ccccc2n1CC(O)COc1ccccc1 (stereo not drawn) shows IC50 equal to 15 µM (active)
